Measured values drawn from ChEMBL document CHEMBL3872212 for this set.

Test system: Aspergillus flavus
test_description: Antifungal activity against Aspergillus flavus MTCC 1884 measured after 2 days by broth dilution method
Assay type: functional
measured_endpoint: MIC (µg/mL)
Answers are plain numbers, in µg/mL.

1) Cc1ccc(-c2ccc(-c3nc(C)sc3C)cc2)cc1: 25
2) CC(=O)N1CCN(c2ccc(OCC3COC(Cn4ccnc4)(c4ccc(Cl)cc4Cl)O3)cc2)CC1 (stereo unspecified): 12.5
3) COc1ccc(-c2ccc(-c3nc(C)sc3C)cc2)cc1: 25

Give MIC for all compounds that follow.
1. Cc1nc(-c2ccc(-c3ccc(O)cc3)cc2)c(C)s1
2. Cc1nc(-c2ccc(-c3ccc(CO)cc3)cc2)c(C)s1
3. Cc1cc(C)c(-c2ccc(-c3nc(C)sc3C)cc2)c(C)c1

1: 25; 2: 25; 3: 12.5

* * *

Tested on: Staphylococcus aureus
test_description: Antibacterial activity against Staphylococcus aureus ATCC 19433 measured after 24 hrs by broth dilution method
Assay type: functional
measured_endpoint: MIC (µg)
Give bare numbers, in µg.

Previously resolved entries follow.
1. O=C(O)c1cn(C2CC2)c2cc(N3CCNCC3)c(F)cc2c1=O [CIPROFLOXACIN]: 6.25
2. Cc1nc(-c2ccc(-c3ccc(CO)cc3)cc2)c(C)s1: 12.5
3. Cc1nc(-c2ccc(-c3ccc(O)cc3)cc2)c(C)s1: 25
4. COc1ccc(-c2ccc(-c3nc(C)sc3C)cc2)cc1OC: 25
5. Cc1ccc(-c2ccc(-c3nc(C)sc3C)cc2)cc1: 100

Please look at the items below and tell me MIC for each one, in order.
1. COc1ccc(-c2ccc(-c3nc(C)sc3C)cc2)cc1
2. Cc1cc(C)c(-c2ccc(-c3nc(C)sc3C)cc2)c(C)c1

1: 50; 2: 25

* * *

Tested on: Staphylococcus aureus
test_description: Bactericidal activity against Staphylococcus aureus ATCC 19433 measured after 24 hrs by broth dilution method
Assay type: functional
For each record, write down the corresponding MBC.
Give bare numbers, in µg.

1. Cc1cc(C)c(-c2ccc(-c3nc(C)sc3C)cc2)c(C)c1: 100

Provide MBC values for the following items, in order.
1. Cc1nc(-c2ccc(-c3ccc(O)cc3)cc2)c(C)s1
2. COc1ccc(-c2ccc(-c3nc(C)sc3C)cc2)cc1OC

[100, 50]

* * *

Tested on: Bacillus spizizenii
test_description: Antibacterial activity against Bacillus subtilis ATCC 6633 measured after 24 hrs by broth dilution method
Format: functional
measured_endpoint: MIC (µg/mL)
Numbers only, in µg/mL.

1) O=C(O)c1cn(C2CC2)c2cc(N3CCNCC3)c(F)cc2c1=O: 6.25
2) COc1ccc(-c2ccc(-c3nc(C)sc3C)cc2)cc1: 6.25
3) COc1ccc(-c2ccc(-c3nc(C)sc3C)cc2)cc1OC: 12.5

Pending molecule:
Determine reported MIC for `Cc1cc(C)c(-c2ccc(-c3nc(C)sc3C)cc2)c(C)c1` ; test system: Bacillus spizizenii. 6.25

* * *

Tested on: Staphylococcus aureus
test_description: Antibacterial activity against Staphylococcus aureus ATCC 19433 at 200 ug/mL measured after 24 hrs by filter paper disc method
Assay type: functional
recorded_conditions: ATCC 19433, 24 h, read-out: DIZ
# zone of inhibition at 200 µg/mL >= 20 mm gives 1.0, anything below gives 0.0

Take a look at these entries with their results.
1) Cc1nc(-c2ccc(-c3cccc(C=O)c3)cc2)c(C)s1: 0.0
2) Cc1nc(-c2ccc(-c3ccc(F)c(C)c3)cc2)c(C)s1: 0.0
3) Cc1ccc(-c2ccc(-c3nc(C)sc3C)cc2)cc1: 1.0
4) Cc1nc(-c2ccc(-c3ccc(CO)cc3)cc2)c(C)s1: 1.0
5) COc1cccc(-c2ccc(-c3nc(C)sc3C)cc2)c1: 0.0
6) Cc1nc(-c2ccc(-c3ccc(I)cc3)cc2)c(C)s1: 0.0

Given the entry `Cc1nc(-c2ccc(-c3ccc(C(F)(F)F)cc3)cc2)c(C)s1` , answer whether its zone of inhibition at 200 µg/mL meets or surpasses 20 mm. 0.0

Could you tell me if the measured zone of inhibition at 200 µg/mL of `COc1ccc(-c2ccc(-c3nc(C)sc3C)cc2)cc1` reaches 20 mm or more? 1.0
